Tested on: PC-3 prostate
Experiment: NCI-60 one-dose screen, 48 h
Conditions: 10 µM unless noted
About 83,000 compounds went through this panel and 20% of them were active in at least one assay; those are over-represented in the sample as a whole. Active and inactive are the calls of the source. The calls were made as follows: active = growth percent below 10; inactive = the rest.
Pick one: true = active, false = inactive

Ask: Identify the outcome logged in this assay for the compound shown: BrC1CC(Br)c2c1c1c(c3c2C(Br)CC3Br)C(Br)CC1Br (stereo not drawn)
Reply: false

Ask: Record lookup: outcome of this test for "O=C(N/N=C/c1cccc(O)c1)c1ccc(C(F)(F)F)nc1Nc1cccc(C(F)(F)F)c1" ?
Reply: true

Ask: Assay outcome for "CN(C)c1ccc(-n2nc3ccccc3n2)cc1" : what was it?
Reply: false

Ask: How was CCC(C)C1NC(=O)C(CCNCS(=O)(=O)O)NC(=O)C(NC(=O)C(CCNCS(=O)(=O)O)NC(=O)C(NC(=O)C(CCNCS(=O)(=O)O)NC(=O)CCCCC(C)C)C(C)O)CCNC(=O)C(C(C)O)NC(=O)C(CCNCS(=O)(=O)O)NC(=O)C(CCNCS(=O)(=O)O)NC(=O)C(C(C)CC)NC1=O (stereo not drawn) classified in this test?
Reply: false

Ask: Query: recorded result category for "COc1cnc2c(c1)C(=O)c1c-2n(CCCN2CCNCC2)c(=O)c2cc(F)ccc12" in this test
Reply: false

Ask: Identify the outcome logged in this assay for the compound shown: CC1CN(CC(O)c2ccc(Br)cc2)CCO1 (stereo not drawn)
Reply: false

Ask: Which outcome did this test record for the compound "O=C(CN1CCN(c2ccc(Cl)cc2)CC1)N1CCN(c2nnc(-c3ccc(Cl)cc3)c(-c3ccc(Cl)cc3)n2)CC1" ?
Reply: false

Ask: Name the outcome recorded for "O=[N+]([O-])c1ccc(N=Nc2c(Cl)cc(O)cc2Cl)cc1" in the assay.
Reply: true

Ask: # fetch the recorded call for "O=C1NC(=O)/C(=C\c2ccco2)S1" here
Reply: false

Ask: What is the recorded call for this compound in the test? "CCOC(=O)C(Br)=P(c1ccccc1)(c1ccccc1)c1ccccc1"
Reply: false

Ask: Any idea what this test logged for "COc1c(O)cc2c(c1CC=C(C)C)OC(=O)c1c(cc(O)c(CC=C(C)C)c1O)O2" ?
Reply: false

Ask: Status in this test for "CC(C)Cn1cnc2c(NCn3nc(-c4cc(Cl)cc(Cl)c4Cl)n(/N=C/c4ccc(Cl)cc4)c3=S)nc3ccccc3c21" ?
Reply: false

Ask: Just curious, what result did "N#Cc1c(NC(=O)c2ccco2)[n+]([O-])c2cc(Cl)c(Cl)cc2[n+]1[O-]" get here?
Reply: false

Ask: Recorded call for CCCCOP(=O)(OCCCC)C(C(=O)OCC)C(CC(=O)OCC)C(=O)OCC (stereo not drawn) ?
Reply: false

Ask: Hi, sorry to bother you, what did the test record for "CCCCc1n(Cc2ccc3ccccc3c2)cc[n+]1Cc1ccc2ccccc2c1" ?
Reply: true

Ask: Field: outcome | Entry: "COc1cccc(N2CCN(CC(=O)N3CCN(c4nnc(-c5ccc(Cl)cc5)c(-c5ccc(Cl)cc5)n4)CC3)CC2)c1"
Reply: false

Ask: GET /call?item= "COC(=O)[C@H](Cc1cn(C)cn1)NC(=O)[C@H](C)NC(=O)Nc1cc(C(F)(F)F)cc(C(F)(F)F)c1" returns the recorded outcome of this test.
Reply: true

Ask: // outcome(item) with item = "CCCc1n(Cc2ccc3ccccc3c2)cc[n+]1Cc1ccc2ccccc2c1"
Reply: true

Ask: Outcome logged for "O=C1/C(=C/c2ccccc2O)C(=S)SN1Cc1ccco1" in this assay:
Reply: false

Ask: Lab log entry: "CC(=O)/C(=C/c1ccc(Cl)cc1)C(=O)c1ccccc1" — outcome as called in the assay?
Reply: false

Ask: Any idea what this test logged for O=C1C2C(C(=O)N1CC[Se][Se]CCN1C(=O)C3C(C1=O)[C@H]1C=C[C@@H]3C1)[C@H]1C=C[C@@H]2C1 (stereo partly drawn) ?
Reply: true

Ask: // outcome(item) with item = "CN1CCN(CCCOc2ccc3ncnc(Nc4ccc(OCc5cccc(F)c5)c(Cl)c4)c3c2)CC1"
Reply: true

Ask: Test call for this compound, please: "Cc1ccc(S(=O)(=O)N2CCN(C(=O)CSc3nc4ccc(C)cc4[nH]3)CC2)cc1"
Reply: false

====

Tested on: SF-295 CNS
Assay: NCI-60 one-dose screen, 48 h (100 = growth as untreated, 0 = no growth, -100 = all killed)
Settings: 10 µM unless noted
About 83,000 compounds went through this panel and 20% of them were active in at least one assay; those are over-represented in the sample as a whole. Active and inactive are the calls of the source. How the source made its calls: active means growth percent below 10; inactive means the rest.
QUANTITY: growth

Entry Nc1ccn(C2O[C@H](CO)[C@@H](O)[C@@H]2O)c(=O)n1 (stereo partly specified) , SF-295 CNS data, growth value: 50.8% (inactive)

Lab note: compound "O=C(O)c1ccc2cccnc2c1O" tested on SF-295 CNS; recorded growth was 6.02% (active)

Record for "N#Cc1c(-c2ccccc2)cc(-c2ccccc2)n(CCC(=O)O)c1=O" under target or system SF-295 CNS: growth reported as 37.3% (inactive)

# value of growth, SF-295 CNS, item "Cc1ccc2nc(-c3ccc(N(C)C)c(Br)c3)cn2c1" = 90.5% (inactive)

Entry N#CSCC1CC(O)(c2ccccc2)C(c2ccccc2)C(c2ccc(Cl)cc2)O1 (stereo unspecified) : growth on SF-295 CNS = -77.9% (active)

For "Cc1cc2c(cc1C)[n+](Cc1ccc3ccccc3n1)cn2Cc1ccc2ccccc2n1" on SF-295 CNS, measured growth was 5.16% (active)

SF-295 CNS growth of "CSc1nc2nc3c(c(-c4ccc(C)cc4)c2c(=O)[nH]1)CN(C)C/C3=C\c1ccc(C)cc1" is 111% (inactive)

Measured on SF-295 CNS, "Cn1ccnc1C(=O)/C=C/c1ccc(C(=O)Nc2nc3ccccc3[nH]2)cc1" has a documented growth of 64.9% (inactive)

Item: "ICCC(c1ccccc1)(c1ccccc1)c1ccccc1" | System: SF-295 CNS | growth: 51.3% (inactive)

Result for "O=C(NC1CCCCC1)c1ccc(Nc2ncnc3c2cnn3-c2ccccc2)cc1" , tested on SF-295 CNS, growth: 73.4% (inactive)

Result for "COC(=O)c1cc2c(/C=C3/NC(=S)NC3=O)coc2n1C" , tested on SF-295 CNS, growth: 45.2% (inactive)

Observed growth on SF-295 CNS, entry "COc1cccc(/C=C2\Cc3ccccc3C2=O)c1" , equals 94.6% (inactive)

Assay SF-295 CNS, sample "C/C(=C\CCc1ccoc1)CC/C=C(\C)CCCN1CCSCC1" , growth read: 46.9% (inactive)

Bench note, SF-295 CNS: "Nc1ccc2c(c1Br)Cc1ccccc1-2" , growth reads 92.1% (inactive)

CC1c2ccccc2-c2ccccc2N1C (stereo unspecified) on SF-295 CNS gives growth = 109% (inactive)

Bench note, SF-295 CNS: "CC(=O)Nc1cc(C(c2ccccc2)c2ccccc2)cc(C(c2ccccc2)c2ccccc2)c1C" , growth reads 54.9% (inactive)

The reported SF-295 CNS growth of COc1cc2c(cc1OC)C(CC1(O)CCCCC1)N(S(=O)(=O)c1ccc(C)cc1)CC2 (stereo unspecified) is 3.6% [100 µM] (active)

Entry "Cc1cnc2nc(-c3ccc(N(C)C)cc3)cn2c1" , SF-295 CNS data, growth value: 106% (inactive)

The measured growth that O=C(c1ccccc1)C(CN1CCCCC1)c1ccccc1 (stereo unspecified) showed for SF-295 CNS is 98.8% (inactive)

Tested on SF-295 CNS: "CCOC(=O)Nc1ccc2c3c(cccc13)-c1ccccc1-2" . Observed growth: 27.2% (inactive)

Entry "COc1ccc2cc(C3=CC(=O)CCC3)ccc2c1" , tested on SF-295 CNS, has a reported growth of 110% (inactive)

====

System: NCI-H322M lung
Assay: NCI-60 one-dose screen, 48 h
Conditions: 10 µM unless noted
The panel holds about 83,000 compounds, 20% with a hit somewhere; the sample as a whole holds those more often. Calls of active or inactive are those of the source. How the source made its calls: active means growth percent below 10; inactive means the rest.
Choose the fitting class; nothing outside active, inactive is accepted.

Ask: Just curious, what result did O=C1CSC(c2ccccc2Cl)N1c1nnc(Cn2nnc3ccccc32)o1 (configuration not stated) get here?
Reply: inactive

Ask: Status in this test for COc1ccc(C2=NN(C(C)=O)C(c3c(C)nn(-c4ccccc4)c3N3CCOCC3)C2)cc1 (configuration not stated) ?
Reply: inactive

Ask: I'd appreciate the recorded outcome for "CCN(CC)CCOCC[C@H]1CC[C@H]2[C@@H]3[C@H](C)Cc4cc(OS(N)(=O)=O)ccc4[C@H]3CC[C@]12C" from this test.
Reply: active

Ask: Check the results log: what was the call for Nc1nc(SCc2cccnc2)c2ncn(C3OC(CO)C(O)C3O)c2n1 (configuration not stated) ?
Reply: inactive

Ask: // return assay outcome for Clc1ccc2c(c1)C(Br)c1cc(Cl)cc(Cl)c1-2 (configuration not stated)
Reply: inactive

Ask: In this assay, the call recorded for "COC(=O)C1CCN(S(=O)(=O)c2ccc(-c3ccccc3)cc2)CC1" was what?
Reply: inactive

Ask: Could you please tell me the result logged for "Cc1nn(-c2nc3ccccc3s2)c(C)c1Oc1ccccc1O" in this assay?
Reply: inactive

Ask: How did this test come out for "COC(=O)c1c(NC(=O)CSc2nnnn2-c2ccc(OC)cc2)sc(C)c1C" ?
Reply: inactive

Ask: Look up the recorded call for "FCc1ncc(-c2ccc(C(F)(F)F)cc2)c(NC2CCCCCC2)n1" in this test.
Reply: inactive

Ask: I would be grateful if you could indicate the recorded call for "O=C1C=CC(=O)N1c1ccccn1" .
Reply: inactive

Ask: Which result was noted for this compound in the test: "NC(=O)c1cc(Cl)ccc1NC(=O)c1ccccc1-c1ccccc1"
Reply: inactive

Ask: Call for entry "COC(=O)[C@H](Cc1cn(C)cn1)NC(=O)[C@@H](NC(=O)Nc1cc(C(F)(F)F)cc(C(F)(F)F)c1)C(C)C" :
Reply: active

Ask: Tell me the assay call for "O=C1Nc2ccc(C(=O)O)c(O)c2C1=O" please.
Reply: inactive

Ask: Test call, this compound: "COc1cc(/C=C\C(C)=N\Nc2ccccc2)ccc1O"
Reply: inactive

Ask: State the result this test recorded for COc1ccc(C2=NN(C=O)C(c3cccc(Nc4ccnc5cc(Cl)ccc45)c3)C2)cc1 (configuration not stated) .
Reply: inactive

Ask: For this compound, state the assay outcome: "N#Cc1c(-c2ccccc2)cc(-c2ccccc2)n(CCCCC(=O)O)c1=O"
Reply: inactive

Ask: Tell me the assay call for "COc1ccc2nc(N/N=C(\C)c3ccccn3)cc(C)c2c1" please.
Reply: active

Ask: Please share the test call associated with "COc1ccc(Oc2ccccc2NC(=O)CNC(=O)c2cccc3ccccc23)cc1" .
Reply: inactive

Ask: // return assay outcome for "Cc1sc2nc(N3CCCCC3)[nH]c(=O)c2c1C"
Reply: inactive

Ask: Status in this test for "O=C(Nc1nc(-c2ccc(Cl)cc2)cs1)c1cc(-c2ccc(Br)cc2)nc2ccc(Cl)cc12" ?
Reply: inactive

Ask: How did this test come out for "COc1ccc(CNC(=O)c2c(C)n([O-])c3ccc(OC)cc3[n+]2=O)cc1" ?
Reply: inactive

Ask: Each compound tested received a call. Report the one for COc1cc(/C=C/C(=O)CC(=O)/C=C/c2ccc(OC(=O)C3C4CC5CC(C4)CC3C5)c(OC)c2)ccc1OC(=O)C1C2CC3CC(C2)CC1C3 (configuration not stated) .
Reply: inactive
